# Tested on: ACHN renal
# test-summary: NCI tumour cell line growth inhibition, 48 h
property: TGI

chemical-smiles: O=C1C=CC(=C(c2ccc(O)cc2)c2ccc(O)cc2)C=C1
recorded-measurement: 28.7 µM

chemical-smiles: Cc1noc2c1C(=O)CCC2
recorded-measurement: > 100 µM

chemical-smiles: Cc1c(-c2ccccc2)nn2cc(-c3ccccc3)nnc12
recorded-measurement: > 100 µM

###

# Test system: CCRF-CEM leukemia
# test-summary: NCI tumour cell line growth inhibition, 48 h
Listed compounds paired with reported TGI

chemical-smiles: COc1ccc2[nH]c3c(c2c1)CCN[C@]31CS[C@@H]2c3c(OC(C)=O)c(C)c4c(c3[C@H](COC1=O)N1[C@@H]2[C@H]2c3c(cc(C)c(OC)c3O)C[C@@H]([C@@H]1O)N2C)OCO4
TGI: > 100 µM
//
chemical-smiles: O=C(CSc1ncn[nH]1)C[P+](c1ccccc1)(c1ccccc1)c1ccccc1
TGI: > 100 µM
//
chemical-smiles: Cc1ccc2c(=O)c(C(=O)Nn3c(C)csc3=S)c[nH]c2n1
TGI: > 100 µM
//
chemical-smiles: COc1ccc(/C=C/C(=O)c2cc(C(C)(C)C)c(O)c(C(C)(C)C)c2)cc1OC
TGI: 11.8 µM
//
chemical-smiles: Cc1ccc(/C=C2\CN(C(=O)C(Cl)Cl)C/C(=C\c3ccc(C)cc3)C2=O)cc1
TGI: > 100 µM

###

Listed compounds paired with reported TGI
# Test system: NCI-H23 lung
# test-summary: NCI tumour cell line growth inhibition, 48 h

compound: CN(Cc1cccc(F)c1)c1ccc(CO)c(Cl)c1
test-system: NCI-H23 lung
TGI: > 92.6 µM
//
compound: Cc1ccc2c(=O)c(C(=O)Nn3c(C)csc3=S)c[nH]c2n1
test-system: NCI-H23 lung
TGI: > 100 µM
//
compound: CCOC(=O)c1c(Br)c(-c2ccc(OC)cc2)c(Br)n1C
test-system: NCI-H23 lung
TGI: > 100 µM
//
compound: CCCC(O)c1cn(C(NC(=O)c2ccccc2)P(=O)(OCC)OCC)nn1 (centres undefined)
test-system: NCI-H23 lung
TGI: > 100 µM
//
compound: CCCCCCNC(=O)CCC(NC(=O)c1ccc(N(C)Cc2cnc3nc(N)nc(N)c3n2)cc1)C(=O)NCCCCCC (centres undefined)
test-system: NCI-H23 lung
TGI: > 100 µM
//
compound: CCC/C=C1\CCC(CN(C)C)C1=O (centres undefined)
test-system: NCI-H23 lung
TGI: 32.8 µM
//
compound: COc1cccc(CSCC(=O)O)c1
test-system: NCI-H23 lung
TGI: > 100 µM
//
compound: CC1=NN(C(=O)CC(=O)Nc2ccccc2Cl)C(=O)C1N=Nc1ccc(S(=O)(=O)c2ccc(N=NC3C(=O)N(C(=O)CC(=O)Nc4ccccc4Cl)N=C3C)cc2)cc1 (centres undefined)
test-system: NCI-H23 lung
TGI: > 100 µM
//
compound: C#CC[N+](C)(CC#C)CC#C
test-system: NCI-H23 lung
TGI: > 100 µM
//
compound: CC1(C)O[C@@H](CCl)C[C@H](C#N)O1
test-system: NCI-H23 lung
TGI: > 100 µM
//
compound: COC(OC)C1OCC(n2cc(F)c(=O)[nH]c2=O)C1O (centres undefined)
test-system: NCI-H23 lung
TGI: > 100 µM
//
compound: Brc1ccc2c3c1[C@H]1O[C@H]1c1cccc(c1-3)[C@@H]1O[C@H]21
test-system: NCI-H23 lung
TGI: 38.7 µM
//
compound: COc1cc(O)c2c(=O)c3c(C)cccc3n(C)c2c1
test-system: NCI-H23 lung
TGI: > 10 µM
//
compound: S=c1nc(COc2ccc(Cl)cc2Cl)[nH][nH]1
test-system: NCI-H23 lung
TGI: > 100 µM
//
compound: COc1cc(CNc2cnc3cc(N)ccc3n2)cc(OC)c1OC
test-system: NCI-H23 lung
TGI: > 100 µM
//
compound: COC(=O)/C=C\C(C#N)(C#N)N=Cc1ccccc1
test-system: NCI-H23 lung
TGI: 25.3 µM
//
compound: NC(=O)c1ccccc1NC(=O)C(=O)Cc1nc2ccccc2[nH]c1=O
test-system: NCI-H23 lung
TGI: > 100 µM
//
compound: COC(=O)C1=C(c2ccc(OC)c(OC)c2)OC(c2cc(OC)c(OC)c(OC)c2)C1 (centres undefined)
test-system: NCI-H23 lung
TGI: > 100 µM
//
compound: CCOC(=O)c1c(-c2ccc(Cl)cc2)c(C#N)c(=S)n(C2OC(COC(C)=O)C(OC(C)=O)C(OC(C)=O)C2OC(C)=O)c1-c1ccccc1 (centres undefined)
test-system: NCI-H23 lung
TGI: > 100 µM
//
compound: C=C1C(=O)O[C@H]2[C@H]1CC/C(COC(=O)CCSCCC(=O)OC/C1=C/CC[C@@]3(C)O[C@H]3[C@H]3OC(=O)C(=C)[C@@H]3CC1)=C\CC[C@@]1(C)O[C@@H]21
test-system: NCI-H23 lung
TGI: 4.2 µM
//
compound: Nc1nc(N)c(C=Nc2ccc(Br)cc2)c(Nc2ccc(Br)cc2)n1
test-system: NCI-H23 lung
TGI: 27.3 µM
//
compound: COc1ccc(NC(=O)CC(=O)n2nc(C)c(N=Nc3cccc(C)c3)c2C)cc1
test-system: NCI-H23 lung
TGI: > 100 µM
//
compound: CSc1c(C#N)c(N)nc2c(N=Nc3ccc(Br)cc3)c(N)nn12
test-system: NCI-H23 lung
TGI: 14.4 µM
//
compound: CCOc1cc(Br)c(C(C)NC(=O)c2cccc(OC)c2)cc1OCC (centres undefined)
test-system: NCI-H23 lung
TGI: > 100 µM

###

# Tested on: KM20L2 colon
# test-summary: NCI tumour cell line growth inhibition, 48 h

compound: O=[N+]([O-])c1ccc(Cl)c(C2CC(c3cccc4ccccc34)=Nc3ccccc3S2)c1 (centres undefined)
TGI: > 100 µM
--
compound: CN=C(NC(=S)N(C)C)N(C)C
TGI: > 100 µM
--
compound: N#CC1CCCCOCCOCCOCCOCCOCCCCCC1=O (centres undefined)
TGI: > 100 µM
--
compound: O=C1C2=C(c3ccccc31)C(c1ccccc1)N1C(=O)CSC1=N2 (centres undefined)
TGI: > 100 µM
--
compound: NC(=O)c1ccccc1NC(=O)C(=O)Cc1nc2ccccc2[nH]c1=O
TGI: > 100 µM
--
compound: O=C1C=CC(=C(c2ccc(O)cc2)c2ccc(O)cc2)C=C1
TGI: 30.7 µM
--
compound: Cc1cc(-c2ccccc2)nc(Nc2nc3ccccc3o2)n1
TGI: > 100 µM
--
compound: CCCC(C)n1c(C)nc2c1C(=O)c1ccccc1C2=O (centres undefined)
TGI: > 100 µM
--
compound: Cc1nc2c(o1)C(=Nc1ccccc1)c1ccccc1C2=O
TGI: 31.2 µM

###

Listed compounds paired with reported TGI
# System: SK-MEL-5 melanoma
# test-summary: NCI tumour cell line growth inhibition, 48 h

chemical-smiles: CSCCCS/C1=C/CCCCCCCCCC1
TGI: > 100 µM

chemical-smiles: NC(=O)c1c([N+](=O)[O-])cc(C(F)(F)F)cc1[N+](=O)[O-]
TGI: > 100 µM

chemical-smiles: O=c1cc(NNc2cccc(F)c2)[nH]c(=O)[nH]1
TGI: > 100 µM

chemical-smiles: O=[N+]([O-])c1ccc(N/N=C/CC(O)(C(F)(F)F)C(F)(F)F)c([N+](=O)[O-])c1
TGI: > 10 µM

chemical-smiles: Cc1cccc(C(C)C)c1N1C(=O)C(=O)C(c2nc3ccccc3o2)C(=O)C1=O
TGI: > 100 µM

chemical-smiles: CC(=O)OC1=CC2=CC[C@H]3[C@@H]4CCC(=O)[C@@]4(C)CC(=O)[C@]3(S)[C@@]2(C)CC1
TGI: > 100 µM

###

Listed compounds paired with reported TGI
# System: A498 renal
# test-summary: NCI tumour cell line growth inhibition, 48 h
property: TGI (µM)

compound: O=c1sc2c(s1)-c1sc(=O)sc1SS2
test-system: A498 renal
rel: >
recorded-measurement: 62.2
--
compound: Cc1cn(CCCCCCC2=NCCCN2)c(=O)[nH]c1=O
test-system: A498 renal
rel: >
recorded-measurement: 100
--
compound: COC(OC)C1OCC(n2cc(F)c(=O)[nH]c2=O)C1O (stereo unspecified)
test-system: A498 renal
rel: >
recorded-measurement: 100
--
compound: Clc1ccc(-c2nnc(-c3cccc4ccccc34)o2)cc1Cl
test-system: A498 renal
rel: >
recorded-measurement: 100
--
compound: O=C(O)C1CCCCC1c1c2ccc(=O)c(O)c-2oc2c(O)c(O)ccc12 (stereo unspecified)
test-system: A498 renal
rel: >
recorded-measurement: 100
--
compound: CSCCCS/C1=C/CCCCCCCCCC1
test-system: A498 renal
rel: >
recorded-measurement: 100
--
compound: O=C1c2ccccc2C(=O)c2sc(Nc3ccccc3C(F)(F)F)nc21
test-system: A498 renal
rel: =
recorded-measurement: 28.9
--
compound: COc1cc(O)c2c(=O)c3c(C)cccc3n(C)c2c1
test-system: A498 renal
rel: >
recorded-measurement: 10
--
compound: O=C1Nc2ccccc2Cn2c1cc1oc(-c3ccccc3)cc12
test-system: A498 renal
rel: >
recorded-measurement: 100
--
compound: Cn1c(=O)c(NC(=O)C(Cl)(Cl)Cl)nc2ccccc21
test-system: A498 renal
rel: >
recorded-measurement: 100
--
compound: COc1ccccc1C1=C(Nc2ccccc2)C(=O)NC1=O
test-system: A498 renal
rel: >
recorded-measurement: 25
--
compound: C=CCc1cc(-c2cc(CC=C)c(O)c(CN(CC)CC)c2)cc(CN(CC)CC)c1O
test-system: A498 renal
rel: >
recorded-measurement: 100
--
compound: CCN(CC)C(=S)Nc1ccc(-c2cc3ccc(O)cc3oc2=O)cc1
test-system: A498 renal
rel: =
recorded-measurement: 96.5
--
compound: O=C1NC(=O)C(=Nc2cccc3c(=O)[nH][nH]c(=O)c23)C(c2nc3ccccc3s2)C1=O (stereo unspecified)
test-system: A498 renal
rel: >
recorded-measurement: 100
--
compound: CC(=O)N1N=C(c2ccc(Nc3ccnc4cc(Cl)ccc34)cc2)CC1c1ccc(Cl)cc1 (stereo unspecified)
test-system: A498 renal
rel: >
recorded-measurement: 100
--
compound: Cc1ccc2c(=O)c(C(=O)Nn3c(C)csc3=S)c[nH]c2n1
test-system: A498 renal
rel: >
recorded-measurement: 100
--
compound: O=C1C=C2SC3C[C@@]24CC1[N+]1=c2c4c(c(O)c4c2=C(C=N4)CC1)N3
test-system: A498 renal
rel: =
recorded-measurement: 16.6
--
compound: CC(=O)OC1C(C)OC(OC(=O)C2CCC3C(C2)OC2(CC(OC(=O)/C=C/c4ccccc4)C(C)CO2)C32CO2)C(OC2OC(C)C(O)C(OC(C)=O)C2O)C1O (stereo unspecified)
test-system: A498 renal
rel: =
recorded-measurement: 0.286
--
compound: Nc1c(O)cc(N=C2C(=O)C=CC=C2C(=O)O)c(O)c1C(=O)O
test-system: A498 renal
rel: >
recorded-measurement: 100
--
compound: COc1cccc(-c2ccc3c(c2)C2CCN(Cc4ccccc4)C3C2)c1 (stereo unspecified)
test-system: A498 renal
rel: =
recorded-measurement: 17.6
--
compound: Cc1ccc(/C=C2\CN(C(=O)C(Cl)Cl)C/C(=C\c3ccc(C)cc3)C2=O)cc1
test-system: A498 renal
rel: =
recorded-measurement: 0.79
--
compound: Cc1ccc(-c2c3c(nn2-c2ccc(S(N)(=O)=O)cc2)-c2ccccc2C3)cc1
test-system: A498 renal
rel: =
recorded-measurement: 21
--
compound: CSc1c(C#N)c(N)nc2c(N=Nc3ccc(Br)cc3)c(N)nn12
test-system: A498 renal
rel: =
recorded-measurement: 52.9
--
compound: CC1=CC(=O)C(C(C)C)=CC1=Nc1cc(Br)c(O)c(Br)c1
test-system: A498 renal
rel: =
recorded-measurement: 19.6
--
compound: c1ccc(CN[C@]23C4C5CC6C7C5C2C7[C@@](NCc2ccccc2)(C64)N3Cc2ccccc2)cc1 (stereo partly specified)
test-system: A498 renal
rel: >
recorded-measurement: 100
--
compound: CCCC(O)c1cn(C(NC(=O)c2ccccc2)P(=O)(OCC)OCC)nn1 (stereo unspecified)
test-system: A498 renal
rel: >
recorded-measurement: 100
--
compound: CCCCCCNC(=O)CCC(NC(=O)c1ccc(N(C)Cc2cnc3nc(N)nc(N)c3n2)cc1)C(=O)NCCCCCC (stereo unspecified)
test-system: A498 renal
rel: >
recorded-measurement: 100
--
compound: COc1cc(C2=NNC(=O)c3ccccc3N2c2nc(-c3cccs3)nc3ccc(Br)cc23)cc(OC)c1OC
test-system: A498 renal
rel: =
recorded-measurement: 91.9
--
compound: N[C@@H]1C(=O)N2C(C(=O)OC(c3ccccc3)c3ccccc3)=C(CCl)CS[C@H]12
test-system: A498 renal
rel: >
recorded-measurement: 100
--
compound: COc1cccc(-c2nn(-c3ccccc3)cc2-c2ccnc(NCCNC(=O)Nc3cccc(C(F)(F)F)c3)c2)c1
test-system: A498 renal
rel: =
recorded-measurement: 8.37
--
compound: COc1ccc(/C=C2\CCS(=O)(=O)c3ccccc3C2=O)cc1OC
test-system: A498 renal
rel: =
recorded-measurement: 73.7
--
compound: O=C(NC1CCCCC1)c1cc2ccccc2cc1O
test-system: A498 renal
rel: =
recorded-measurement: 78.3
--
compound: COc1ccc(C(c2ccc(OCCN(C)C)cc2)c2cc3ccccc3c3ccccc23)cc1 (stereo unspecified)
test-system: A498 renal
rel: =
recorded-measurement: 20.9
--
compound: NC(=O)c1c([N+](=O)[O-])cc(C(F)(F)F)cc1[N+](=O)[O-]
test-system: A498 renal
rel: >
recorded-measurement: 100
--
compound: Cn1nc(-c2ccc(Cl)cc2)nc2c(=O)n(C)c(=O)nc1-2
test-system: A498 renal
rel: =
recorded-measurement: 2.24
--
compound: CN(C)c1ccc(/C=C/c2ccc(/C=C/c3ccc(N(C)C)cc3)cc2)cc1
test-system: A498 renal
rel: >
recorded-measurement: 100
